# Tested on: micturition reflex (rhythmic bladder contractions)
# Protocol description: Inhibition of micturition reflex (rhythmic bladder contractions) in anesthetized rats
# Assay type: in vivo, male wister rats
# Setup conditions: 1 mg/kg, i.v.; 3 rats; mean ± S.E.
Where a name gives a salt, the structure may show the parent alone.
The threshold is 1 min. Values of Disappearance time (of bladder contractions) beneath it are tagged yes; values meeting or exceeding it are tagged no.

Solved cases (4 shown):
>>> df
                                   compound                              assay_target  group_label
0  CCc1ccc(C(=O)C(C)CN2CCCCC2)cc1 (stereo not shown)  micturition reflex (rhythmic bladder contractions)          yes
1  CC(CN1CCCCCC1)C(=O)c1ccc(F)cc1 (stereo not shown)  micturition reflex (rhythmic bladder contractions)          yes
2  CCc1ccc(C(=O)C(C)CN2CCCC2)cc1 (stereo not shown)  micturition reflex (rhythmic bladder contractions)           no
3  Cc1c(-c2ccccc2)oc2c(C(=O)OCCN3CCCCC3)cccc2c1=O [flavoxate-HCl, reference compound]  micturition reflex (rhythmic bladder contractions)           no

We next turn to a different compound, shown below.
Strictly below 1 min in Disappearance time (of bladder contractions)? COc1ccc(C(=O)C(C)CN2CCCC2)c(C)c1C (stereo not shown)
no

* * *

# Tested on: micturition reflex (rhythmic bladder contractions)
# Protocol description: Inhibition of micturition reflex (rhythmic bladder contractions) in anesthetized rats
# Type: in vivo, male wister rats
# Setup conditions: 2 mg/kg, i.v.; 3 rats; mean ± S.E.
# Protocol: statistical analysis: Each data of Experiment 1-6 represents the mean±S.E. statistical analysis of the data was performed using student's t-test. […] The balloon was connected to a pressure transducer and variations of inside pressure were recorded on a recorder. […] In case of intravenous administration, the drug was evaluated by the dissappearance time of bladder contractions caused by micturition reflex. […]
Assay readout: Disappearance time (of bladder contractions) (min)
Numbers only, in min.

In [3]: df
Out[3]:
                                   compound  units  test_value
0  CC(CN1CCCC1)C(=O)c1ccc(C2CCCCC2)cc1 (centres unmarked)    min         2.5
1  CCc1ccc(C(=O)C(C)CN2CCCC2)cc1 (centres unmarked)    min         2.3
2  CN1CCCC1CCC(=O)c1ccc(Cl)cc1 (centres unmarked)    min         1.1

Hi, could you look up Disappearance time (of bladder contractions) for each item in my list?
1. CC(CN1CCCCCC1)C(=O)c1ccc(F)cc1 (centres unmarked)
2. CC(CN1CCOCC1)C(=O)c1cccc(F)c1 (centres unmarked)
3. Cc1ccc(C(=O)C(C)CN2CCCCC2)cc1 (centres unmarked)
4. CC(CN1CCCC1)C(=O)c1ccc(CF)cc1 (centres unmarked)
5. CCc1ccc(C(=O)C(C)CN2CCCCC2)cc1 (centres unmarked)

1.2
1.8
2.3
1.5
5.3

* * *

# Tested on: micturition reflex (rhythmic bladder contractions)
# Protocol description: Inhibition of micturition reflex (rhythmic bladder contractions) in anesthetized rats
# Format: in vivo, male wister rats
# Setup conditions: Rattus norvegicus, iv; read-out: ED3 (dose at which rhythmic bladder contractions disappeared in three (3) minutes)
Assay readout: ED (3 min disappearance of contractions) (mg/kg)
Give bare numbers, in mg/kg.

Please review the following examples before continuing.
                                   molecule  units  test_value
0  CN1CCCC1CCC(=O)c1ccc(Cl)cc1 (stereo not shown)  mg/kg           8
1  CCc1ccc(C(=O)C(C)CN2CCCCC2)cc1 (stereo not shown)  mg/kg         1.4
2  Cc1ccc(C(=O)C(C)CN2CCCCC2)cc1 (stereo not shown)  mg/kg         2.4

Shift focus to the following entry.
Would you kindly share the measured ED (3 min disappearance of contractions) for CC(CN1CCOCC1)C(=O)c1cccc(F)c1 (stereo not shown) ?
2.8
